FYI, the data here is from patent US7781436B2.

Target: human V1a receptor (Homo sapiens)
Construct: expressed in transfected cells; host or cells: HEK293 cells, transiently transfected; membranes prepared
Sequence (P37288 whole entry): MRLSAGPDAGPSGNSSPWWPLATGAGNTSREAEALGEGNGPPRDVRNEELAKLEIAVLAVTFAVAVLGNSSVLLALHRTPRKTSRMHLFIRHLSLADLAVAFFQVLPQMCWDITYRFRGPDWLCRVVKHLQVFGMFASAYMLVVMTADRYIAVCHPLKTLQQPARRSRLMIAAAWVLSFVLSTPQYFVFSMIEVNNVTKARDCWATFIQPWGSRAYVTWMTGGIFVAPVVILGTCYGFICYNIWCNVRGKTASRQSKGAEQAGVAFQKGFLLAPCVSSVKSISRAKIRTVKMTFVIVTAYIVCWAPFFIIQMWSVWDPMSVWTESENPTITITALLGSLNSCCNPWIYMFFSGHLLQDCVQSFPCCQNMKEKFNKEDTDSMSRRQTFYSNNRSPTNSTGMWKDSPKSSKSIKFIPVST
Experiment: human V1a receptor binding (3H-Vasopressin SPA, membranes of transfected HEK293 cells)
Settings: displacement of 4 nM 3H-Vasopressin, HEK293 cell membranes, Ki by Cheng-Prussoff from IC50; read-out: Ki
Method: The human V1a receptor was cloned by RT-PCR from total human liver RNA. The coding sequence was subcloned in an expression vector after sequencing to confirm the identity of the amplified sequence. […] Cell membranes were prepared from HEK293 cells transiently transfected with the expression vector and grown in 20 liter fermenters with the following protocol. […]
property-measured: Ki (nM)
The reply should be a number in nM, with the unit left off.

# get_value(readout='Ki', item= `CN1CCN(C(=O)Cn2cc(C(=O)N3CCN(c4ccccc4F)CC3)c3ccc(Cl)cc32)CC1` ) 10

Look up Ki: `COc1ccccc1N1CCN(C(=O)c2cn(CC(=O)N(C)C)c3cc(Cl)ccc23)CC1` 14

Name the recorded Ki for `CNCCn1cc(C(=O)N2CCC(c3cccc4c3OCC4)CC2)c2ccc(Cl)cc21` . 12

Any idea what Ki was measured for `CNC(=O)Cn1cc(C(=O)N2CCN(c3ccc(F)cc3F)CC2)c2ccc(Cl)cc21` ? 19

Report Ki for `C[C@H](N)Cn1cc(C(=O)N2CCN(c3ccccc3F)CC2)c2ccc(Cl)cc21` please. 20

Can you share its Ki? I mean this compound: `CS(=O)(=O)NCCn1cc(C(=O)N2CCN(c3ccccc3F)CC2)c2ccc(Cl)cc21` 16

Entry under review: `CNC(=O)Cn1cc(C(=O)N2CCC(c3cccc4c3OCC4)CC2)c2ccc(Cl)cc21` . Reported Ki? 8

# get_value(readout='Ki', item= `COc1cccc(OC)c1C1CCN(C(=O)c2cn(CCN(C)C)c3cc(Cl)ccc23)CC1` ) 4

Find the recorded Ki belonging to `COc1cccc(OC)c1C1CCN(C(=O)c2cn(CC(=O)N3CCNCC3)c3cc(Cl)ccc23)CC1` and report it. 6

Item under review: `COc1cccc(OC)c1C1CCN(C(=O)c2cn(Cc3ccncc3)c3cc(Cl)ccc23)CC1` . Reported Ki? 7

Given `COc1ccccc1C1CCN(C(=O)c2cn(CC(=O)N3CCN(C)CC3)c3cc(Cl)ccc23)CC1` , state its recorded Ki. 9

What measured Ki goes with `COc1ccccc1C1CCN(C(=O)c2cn(CC(=O)N(C)C)c3cc(Cl)c(Cl)cc23)CC1` ? 6

Which Ki is listed for `CNC(=O)Cn1cc(C(=O)N2CCN(c3ncccc3I)CC2)c2ccc(Cl)cc21` ? 12

Query: Ki; subject: `COc1cccc(OC)c1C1CCN(C(=O)c2cn(CC(=O)NCCN)c3cc(Cl)ccc23)CC1` 11

Suppose we examine the compound `COc1ccccc1C1CCN(C(=O)c2cn(CC(=O)OC(C)(C)C)c3cc(Cl)ccc23)CC1` ; what Ki value has been reported? 2

I would be grateful if you could share the reported Ki for `COc1ccccc1C1CCN(C(=O)c2cn(CCN(C)C)c3cc(Cl)ccc23)CC1` . 8
